Molecular target: C52Hk S. African variant (Acro) spike protein (SARS-CoV-2, UniProt P0DTC2 16-1213)
Experiment: SPR (Carterra LSA); […]; 1:1 model; […]
# koff annotations
Answer with a number only, understood to be in s⁻¹.

Antibody 1-1 (Fc fusion) EVQLVESGGGLVQPGGSLRLSCAASGSIGSINAMGWFRQAPGKEREWVAGISNGGTTNYADSVKGRFTISADNSKNTAYLQMNSLKPEDTAVYYCAADGVPEYSDYASGPVWGQGTLVTVSS = 0.00058

Ask: Bench note: what koff did Antibody 1-15 (Fc fusion) EVQLVESGGGLVQPGGSLRLSCAASGGIFSDMFMGWFRQAPGKEREFVATIDWSGDTAFYADSVKGRFTISADNSKNTAYLQMNSLKPEDTAVYYCAVDLSGDAVYDWGQGTLVTVSS show?
Result: 0.00028

Ask: Bench note: what koff did Antibody 1-11 (Fc fusion) EVQLVESGGGLVQPGGSLRLSCAASGFTFDDYVMGWFRQAPGKEREFVAVISWTGESTLYADSVKGRFTISADNSKNTAYLQMNSLKPEDTAVYYCAAFDGYSGSDWGQGTLVTVSS show?
Result: 0.0019

Ask: Bench note: what koff did Antibody 1-8 (Fc fusion) EVQLVESGGGLVQPGGSLRLSCAASGRTLSRYTMGWFRQAPGKEREFVASITSGGTTNYADSVKGRFTISADNSKNTAYLQMNSLKPEDTAVYYCAKEDVGKPFDWGQGTLVTVSS show?
Result: 0.00057

Ask: Bench note: what koff did Antibody 1-10 (Fc fusion) EVQLVESGGGLVQPGSSLRLSCAASGGTFSSIGMGWFRQAPGKEREFVAAISWDGGATAYADSVKGRFTISADNSKNTAYLQMNSLKPEDTAVYYCAKEDVGKPFDWGQGTLVTVSS show?
Result: 0.00089

Ask: Bench note: what koff did Antibody 1-7 (Fc fusion) EVQLVESGGGLVQPGGSLRLSCAASGGTFSSIGMGWFRQAPGKEREFVAAISWDGGATAYADSVKGRFTISADNSKNTVYLQMNSLKPEDTAVYYCAKEDVGKPFDWGQGTLVTVSS show?
Result: 0.00049
